System: Plasmodium falciparum
Experiment: Antimalarial activity against mefloquine-susceptible Plasmodium falciparum CDC Indochina 3 W2 after 48 hrs by [3H]hypoxanthine uptake assay
Format: functional, organism-based
Reported Metric: IC50 (µg/mL)
API: value field is a number in µg/mL; no unit string.

Compound	IC50 [µg/mL]
COc1cccc(-c2c(OC)cc(NC(C)CCCN)c3nc(C(F)(F)F)cc(C)c23)c1.O=C(O)CCC(=O)O (stereo not drawn)	0.6
COc1cc(C)c2c(Oc3cccc(C(F)(F)F)c3)c(OC)cc(NC(C)CCCN)c2n1 (stereo not drawn)	0.8
COc1cc(C)c2c(-c3cccc(C(F)(F)F)c3)c(OC)cc(NC(C)CCCN)c2n1.O=C(O)CCC(=O)O (stereo not drawn)	1.3
COc1cc(NC(C)CCCN)c2nc(C(F)(F)F)cc(C)c2c1-c1ccc(C(F)(F)F)cc1.O=C(O)CCC(=O)O (stereo not drawn)	0.8
COc1cc(NC(C)CCCNC(=O)OC(C)(C)C)c2nc(C(F)(F)F)cc(C)c2c1-c1cccc(C)c1 (stereo not drawn)	0.9
COc1cc(NC(C)CCCNC(=O)OC(C)(C)C)c2nc(C(F)(F)F)cc(C)c2c1-c1ccc(C(F)(F)F)cc1 (stereo not drawn)	1.4
COc1cc(C)c2c(-c3ccc(C(F)(F)F)cc3)c(OC)cc(NC(C)CCCN)c2n1.O=C(O)CCC(=O)O (stereo not drawn)	1.3

Turning now to a further compound:
Measured IC50 of COc1cc(C)c2c(-c3ccc(Cl)c(Cl)c3)c(OC)cc(NC(C)CCCN)c2n1.O=C(O)CCC(=O)O (stereo not drawn) : 1.2
